Tested on: MILI (PIWIL2) piRISC loaded with piRNA #1 (26 nt);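 further: 1 nM active piRISC with 0.1 nM target library at 33 °C single turnover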
Assay: pre-steady-state target cleavage rate (min^-1); guide: piRNA #1 5'p-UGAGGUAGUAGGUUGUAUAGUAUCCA; MIWI and MILI are mouse PIWI proteins and EfPiwi is from a freshwater sponge; tags in brackets are library labels; higher = faster piRNA-guided slicing of the target
Conditions: auxiliary factor: 500 nM mouse GTSF1
Label t for high-side pre-steady-state target cleavage rate (at or above 0.08) and f for low-side pre-steady-state target cleavage rate (below it).

>>> label_class("GGAGACCUAACUAUACAACCUACUACCUGCA")
"t"
>>> label_class("GGAGACGAUACUAUACAAGCUACUACGUCA")
"t"
>>> label_class("GGAGACCUUACUAUACAACCUACUUCGUCA")
"f"
>>> label_class("GGAGACCUAUGUAUUCAACCUACUACGUCA")
"f"
>>> label_class("GGAGACCUAUGAUAUCAACCUACUAACCUCA")
"f"
>>> label_class("GGAGACCAUACUACACAACCUACUACCUCA")
"t"
>>> label_class("GGAGACCAUACUAUACAACCUACUACGUCA")
"t"
>>> label_class("GGAGACCAUACUAUACAACCUACUACGAGA")
"f"
>>> label_class("GGAGAGGAUACUAUACAACCAACUACCACA")
"f"
>>> label_class("GGAGAGGAUUCUAAACAACCUACUACCUCA")
"t"
>>> label_class("GGAGACGAUACUAUAGUUCCUACUACCUCA")
"t"
>>> label_class("GGAGUGGAUACUAUACAACCUAGAACCUCA")
"f"
>>> label_class("GGAGACGAUACUUUACAACCUACUAGCUCA")
"f"
>>> label_class("GGAGACCUAACUAUACAUCCUACUACGUCA")
"t"
>>> label_class("GGAGACCUAUGAUUACAACCUACUGCCUCA")
"f"
>>> label_class("GGAGACCUUACUAUACAACGAACUACCUCA")
"f"
>>> label_class("GGAGACCUAACUAUUCAUCCUACUACCUCA")
"t"
>>> label_class("GGAGACGAUACUAUACAACCUACUACCUCU [g2:g24:cont:t1U]")
"t"
>>> label_class("GGAGACCUAUCUUUAGAACCUACUACCUCA")
"f"
>>> label_class("GGAGACCUAUGAUAUCAACUUACUACCUCA")
"f"
>>> label_class("GGAGACCUAAGUAUUCAACCUACUACCUCA")
"f"
>>> label_class("GGAGACCUAUGAAUACUACCUACUUCCUCA")
"f"
>>> label_class("GGAGACGAAUACUAUACAACCUACUACCUCA")
"t"
>>> label_class("GGAGACCUAUGUAUACAACCUACUAACUCA")
"f"
>>> label_class("GGAGAGGAAACUAUACAACCUACUACGUCA")
"f"
>>> label_class("GGAGACCAUACUAUACAUCGUACUACCUCA")
"f"
>>> label_class("GGAGUGCAUACUAUACAACGUACUACCUCA")
"f"
>>> label_class("GGAGACCUUACUAUACAACCUACUACCUA")
"t"
>>> label_class("GGAGACCUAUGAUUACAAACUACUACCUCA")
"f"
>>> label_class("GGAGACCUAUGUGUACAACCUACUACCUCA")
"f"
>>> label_class("GGAGACCUAUCUAUACAACCAUACUACCUCA")
"f"
>>> label_class("GGAGACCUAACUUUACUACCUACUACCUCA")
"f"
>>> label_class("GGAGACCUAUGAAUACAACCUACUAGCUCA")
"f"
>>> label_class("GGAGUGGAUACUUUACAACCUACUACCUGA")
"t"
>>> label_class("GGAGUGGAAACUUUACAACCUACUACCUCA")
"t"
>>> label_class("GGAGACCUAUCUAUACAACCUAGUACCUCA")
"f"
>>> label_class("GGAGUGGUUUCUAUACAACCUACUACCUCA")
"t"
>>> label_class("GGAGACCUAUGUAUACAACCUACUACCCA")
"f"
>>> label_class("GGAGACCUAUCUAAACAACCUACUACGUCA")
"f"
>>> label_class("GGAGACCAUACUAUUCAACCUACUAGCUCA")
"t"
>>> label_class("GGAGACCUAUGAUAACAACCUACGUACCUCA")
"f"
>>> label_class("GGAGACCAUACUUUACAACCUACUAGCUCA")
"f"
>>> label_class("GGAGAGGAUACUAUUCAACCUACUUCCUCA")
"f"
>>> label_class("GGAGACCUAACUUUACAACCUACUACGUCA")
"f"
>>> label_class("GGAGACCUAACUAUUCAACCUACUUCCUCA")
"f"
>>> label_class("GGAGACCUAUGAUUACAAGGUACUACCUCA")
"f"
>>> label_class("GGAGACCUAUCUAUACAACCUACAACCUGA")
"f"
>>> label_class("GGAGAGGAUACUUAACAACCUACUACCUCA")
"t"
>>> label_class("GGAGACGAUACUAUACAGCCUACUACCUCA")
"t"
>>> label_class("GGAGACCUAACUAUUGAACCUACUACCUCA")
"t"
>>> label_class("GGAGACCUAUGAUUACAACCUACAUACCUCA")
"f"
>>> label_class("GGAGACCAUACAAUACAACCUAGUACCUCA")
"f"
>>> label_class("GGAGACCUAACUAUACAGCCUACUACCUCA")
"f"
>>> label_class("GGAGACCUAUGUAUACAACCUACUGACCUCA")
"f"
>>> label_class("GGAGACCUAACUAUACAACCUACCACCUCA")
"f"
